# Tested on: MOLT-4
# experimental details: Growth inhibition of human MOLT4 cells incubated for 48 hrs by sulforhodamine B assay
# Format: functional
# test conditions: MOLT-4, 48 h
experimental endpoint: log10 GI50 (log10 of the value in nM)
Recall that a logarithmic scale is used here: each number is log10 of GI50 in nM.

COc1cc(C(=O)/C=C/c2cccc(Nc3ccnc4cc(Cl)ccc34)c2)cc(OC)c1OC | 3.25
O=CN1N=C(c2ccc(Cl)cc2)CC1c1cccc(Nc2ccnc3cc(Cl)ccc23)c1 (stereo not given) | 3.05

Give log10 GI50; test system MOLT-4; compound `COc1ccc(C(=O)/C=C/c2cccc(Nc3ccnc4cc(Cl)ccc34)c2)cc1`
3.46

Give log10 GI50; test system MOLT-4; compound COc1ccc(C2=NN(C=O)C(c3cccc(Nc4ccnc5cc(Cl)ccc45)c3)C2)cc1 (stereo not given)
3.37

Give log10 GI50; test system MOLT-4; compound COc1cccc2c1C(=O)c1c(O)c3c(c(O)c1C2=O)C[C@@](O)(C(=O)CO)C[C@@H]3O[C@H]1C[C@H](N)[C@H](O)[C@H](C)O1 [DOXORUBICIN]
1.48

====

# Tested on: HOP-62
# experimental details: Growth inhibition of human HOP62 cells incubated for 48 hrs by sulforhodamine B assay
# Type: functional
# test conditions: HOP-62, 48 h
Below: a set of entries, each annotated with reported log10 of GI50.
Recall that a logarithmic scale is used here: each number is log10 of GI50 in nM.

COc1cccc2c1C(=O)c1c(O)c3c(c(O)c1C2=O)C[C@@](O)(C(=O)CO)C[C@@H]3O[C@H]1C[C@H](N)[C@H](O)[C@H](C)O1 | 1.85
O=CN1N=C(c2ccc(Cl)cc2)CC1c1cccc(Nc2ccnc3cc(Cl)ccc23)c1 (stereo not given) | 3.08
COc1ccc(C(=O)/C=C/c2cccc(Nc3ccnc4cc(Cl)ccc34)c2)cc1 | 3.16
COc1cc(C(=O)/C=C/c2cccc(Nc3ccnc4cc(Cl)ccc34)c2)cc(OC)c1OC | 2.83

Now for another entry.
Return the recorded log10 of GI50 value; entry: COc1ccc(C2=NN(C=O)C(c3cccc(Nc4ccnc5cc(Cl)ccc45)c3)C2)cc1 (stereo not given)
3.32

====

# Test system: Candida albicans
# experimental details: Growth inhibition of Candida albicans ATCC 10231 at 7.8 ug/ml incubated for 48 hrs under dark condition by broth microdilution method relative to control
# Assay type: functional
# test conditions: ATCC 10231, 48 h, read-out: GI
Think of 10% as a floor: if inhibition of growth at 7.8 µg/mL stands on it or above, it is 1.0; beneath it, 0.0.

Clc1ccc(C2=NN(c3ccccc3)C(c3cccc(Nc4ccnc5cc(Cl)ccc45)c3)C2)cc1 (stereo not given) | 0.0

Tell me whether inhibition of growth at 7.8 µg/mL is at least 10% here: COc1cc(C2=NN(c3cc(Cl)cc(Cl)c3)C(c3cccc(Nc4ccnc5cc(Cl)ccc45)c3)C2)cc(OC)c1OC (stereo not given)
0.0

Tell me whether inhibition of growth at 7.8 µg/mL is at least 10% here: COc1cc(C2=NN(C(C)=O)C(c3cccc(Nc4ccnc5cc(Cl)ccc45)c3)C2)cc(OC)c1OC (stereo not given)
0.0

Tell me whether inhibition of growth at 7.8 µg/mL is at least 10% here: O=CN1N=C(c2ccc(Cl)cc2)CC1c1cccc(Nc2ccnc3cc(Cl)ccc23)c1 (stereo not given)
1.0

Tell me whether inhibition of growth at 7.8 µg/mL is at least 10% here: `O=C(/C=C/c1cccc(Nc2ccnc3cc(Cl)ccc23)c1)c1ccc(Br)cc1`
1.0
